# pIC50 annotations
System: N87 (human gastric cancer cells)
assay: In vitro proliferation inhibition of N87 tumor cells (MTS)
Format: cell-based
particulars: 120 h, 5 days
Reminder that pIC50 is minus the log10 of a molar concentration.

Below, 2 molecules whose answers are already recorded.
CC[C@@]1(O)C(=O)OCc2c1cc1n(c2=O)Cc2c-1nc1cc(F)c(C)c3c1c2[C@@H](NC(=O)[C@H](O)C(F)(F)F)CC3	8.67
CC[C@@]1(O)C(=O)OCc2c1cc1n(c2=O)Cc2c-1nc1cc(F)c(C)c3c1c2[C@@H](NC(=O)CO)CC3 [d1]	7.87

As a next step, examine the molecule that follows.
Ask: // lookup pIC50 for CC[C@@]1(O)C(=O)OCc2c1cc1n(c2=O)Cc2c-1nc1cc(F)c(C)c3c1c2[C@@H](NC(=O)[C@H](C)O)CC3
Reply: 8.10
